Experiment: Total plasma clearance in Rhesus monkey at 3 mg/kg, iv by LC-MS/MS analysis
Assay type: ADME, organism-based, Macaca mulatta
quantity: clearance
Remember to quote the unit after the number.

Inquiry: Reported clearance for O[C@H]1COC[C@H]1N1CC[C@@H](c2cc3nc(Nc4cnn([C@@H]5CC5(F)F)c4Cl)ncc3cc2Cl)[C@H](F)C1 : what is it?
Reply text: 21 mL/min/kg

----------
Property: Kp uu at 4 h, 2.5 µM; scope: individual molecules
Test: Unbound brain-to-plasma concentration ratio in rat at 2.5 uM incubated for 4 hrs by equilibrium dialysis method
Type: ADME, cell-free
Conditions: brain and plasma (unbound), read-out: K(p,uu,brain)
Just the number, please, no unit after it.

Recorded Kp uu at 4 h, 2.5 µM, per entry:
INSERT INTO measurements (molecule, quantity, quantitative_result) VALUES
  ('CCNc1nc(Nc2cc(F)c(C(=O)N3CCOCC3)cc2OC)ncc1C(F)(F)F', 'Kp uu at 4 h, 2.5 µM', 0.5),
  ('FC1CN(C2COC2)CCC1c1cc2nc(Nc3cnn(C4CC4)c3Cl)ncc2cc1Cl (stereo not given)', 'Kp uu at 4 h, 2.5 µM', 0.5),
  ('CNc1nc(Nc2cn(C(C)(C)C#N)nc2C)ncc1C(F)(F)F [DNL-201]', 'Kp uu at 4 h, 2.5 µM', 0.6);

Inquiry: Quick one: Kp uu at 4 h, 2.5 µM for COc1cc2ncnc(Nc3cccc(Cl)c3F)c2cc1OC(=O)N1CCN(C)C[C@H]1C [AZD-3759] ?
Reply text: 1.3

Inquiry: Record: O[C@H]1COC[C@H]1N1CC[C@@H](c2cc3nc(Nc4cnn([C@@H]5CC5(F)F)c4Cl)ncc3cc2Cl)[C@H](F)C1
Reply text: 0.36

----------
Experiment: AUC in rat at 10 to 75 mg/kg, po bid administered for 4 days
Type: ADME, organism-based
Design: time 4 day
Settings: in vivo, 96 h, dose 10-75 mg/kg
quantity: AUC (µM·h)
Note: unit µM·h is implicit; provide only the numeric part.

Inquiry: May I ask what AUC has been recorded for Cc1c(Nc2ncc3cc(Cl)c(C4CCN([C@@H]5COC[C@@H]5O)CC4)cc3n2)cnn1[C@@H]1CC1(F)F ?
Reply text: 16

----------
Assay: MRT in Wistar Han rat at 0.1 mg/kg, iv by LC-MS/MS analysis
Format: ADME, organism-based
Conditions: in vivo
quantity: MRT (h)
Give the value, in units of h, as a plain number.

Example cases with answers are listed next.
INSERT INTO assay_data (molecule, quantitative_result) VALUES
  ('FC1CN(C2CCOC2)CCC1c1cc2nc(Nc3cnn(C4CC4(F)F)c3Cl)ncc2cc1Cl (centres undefined)', 3.3),
  ('F[C@@H]1CNCC[C@H]1c1cc2nc(Nc3cnn([C@@H]4CC4(F)F)c3Cl)ncc2cc1Cl', 1.8),
  ('FC1CN(C2COCC2F)CCC1c1cc2nc(Nc3cnn(C4CC4(F)F)c3Cl)ncc2cc1Cl (centres undefined)', 4.8),
  ('Clc1cc2cnc(Nc3cnn(C4CC4)c3Cl)nc2cc1N1CCN(C2COC2)CC1', 1.1);

Now for another entry.
Inquiry: Entry Cc1c(Nc2ncc3cccc(C4CC4)c3n2)cnn1C1CCOCC1 : reported MRT = ?
Reply text: 0.6
